The origin of these recorded values is patent US20250237662A1.

Target: humanized development candidate monoclonal antibody IgG4 (hIgG4)
Assay: Gyrolab, mAb as capture, hIgG4 0.32 ng/ml, against the blank
test.readout: S/B
Write the number on its own, no unit after it.

Problem: Tell me measured S/B for rabbit anti-human IgG monoclonal antibody clone 11G5 (antibody, V domains shown) VH: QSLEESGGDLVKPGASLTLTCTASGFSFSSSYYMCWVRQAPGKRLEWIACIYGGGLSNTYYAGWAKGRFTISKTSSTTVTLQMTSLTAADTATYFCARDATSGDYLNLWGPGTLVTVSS VL: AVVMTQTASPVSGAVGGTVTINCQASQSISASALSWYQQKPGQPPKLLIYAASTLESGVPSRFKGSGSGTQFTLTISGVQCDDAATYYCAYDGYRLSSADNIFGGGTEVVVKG please.
Solution: 1
